This listing pairs compounds with measured %Inh.
test system: IKK-beta; construct: gene IKBKB; conditions: concentration: 1 μM, replicates: in singlicate; n = 1;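 note: KINOMEscan kinase panel screen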

>  <compound>
CN1CCC(n2cnc(-c3ccc(F)cc3)c2-c2ccnc(NC3CCNCC3)n2)CC1

>  <%Inh, %>
0

$$$$
>  <compound>
Cl.c1ccc(Cn2ccc3cc(Nc4ncnc5ccccc45)ccc32)cc1

>  <%Inh, %>
0

$$$$
>  <compound>
CS(=O)(=O)CCNCc1nc(-c2ccc3ncnc(Nc4ccc(OCc5cccc(F)c5)c(Cl)c4)c3c2)cs1.Cl

>  <%Inh, %>
6

$$$$
>  <compound>
Clc1cccc(-c2nc(Nc3ccncc3)c3ccccc3n2)c1

>  <%Inh, %>
0

$$$$
>  <compound>
Cn1cc(-c2ccc3c(c2)CCN3C(=O)Cc2cccc(C(F)(F)F)c2)c2c(N)ncnc21

>  <%Inh, %>
7

$$$$
>  <compound>
Cl.Fc1ccccc1COc1ccc(Nc2ncnc3ccc(-c4nnc(C(F)(F)F)o4)cc23)cc1Cl

>  <%Inh, %>
0

$$$$
>  <compound>
Cn1ccc2ncnc(Nc3ccc(Oc4cccc(Cl)c4)c(Cl)c3)c21

>  <%Inh, %>
7

$$$$
>  <compound>
O=C(Nc1n[nH]c2nc(-c3ccco3)c(Br)cc12)c1ccc(CN2CCCC2)cc1.O=C(O)[C@H](O)[C@@H](O)C(=O)O

>  <%Inh, %>
0

$$$$
>  <compound>
COc1ccc(Nc2nccc(N3CCC(NC(=O)Nc4ccc5c(c4)OCO5)C3)n2)cc1 (stereo not drawn)

>  <%Inh, %>
9

$$$$
